Data provenance is patent US20030119894A1.

- PROTOCOL NOTES: Trypan blue cell death assay in normal human breast epithelial cells
- Assay type: cell-based
- TEST CONTEXT: human
EXPERIMENTAL READOUT: cytotoxicity at 72 h, 1 µM (%)
One number for each entry, in %.

Can you look up the measured cytotoxicity at 72 h, 1 µM of CCCCC1CCCCCCc2cc1c(/C=C1\N=C(c3ccc[nH]3)C=C1OC)[nH]2 (stereo not shown) for me?
5

###

- TARGET OF ASSAY: Bcl-w (Homo sapiens)
- Sequence (Q92843 whole entry, species assumed): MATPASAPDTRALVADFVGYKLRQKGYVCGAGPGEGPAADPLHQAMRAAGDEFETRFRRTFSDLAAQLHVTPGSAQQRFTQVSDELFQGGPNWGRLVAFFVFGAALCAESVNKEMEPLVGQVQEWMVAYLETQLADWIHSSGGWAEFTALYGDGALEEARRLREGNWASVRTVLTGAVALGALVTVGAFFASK
- PROTOCOL NOTES: Anti-apoptotic:Pro-apoptotic binding assay, Bcl-w
EXPERIMENTAL READOUT: IC50 (µM)
Numbers only, in µM.

Can you look up the measured IC50 of CCCCC1CCCCCCc2cc1c(/C=C1\N=C(c3ccc[nH]3)C=C1OC)[nH]2 (stereo not shown) for me?
100

###

- System: E1A cells
- PROTOCOL NOTES: E1A-Bcl2 killing assay
- Format: cell-based
- TEST CONTEXT: read-out: IC50 (μM) E1A-Bcl2 killing assay
EXPERIMENTAL READOUT: IC50 (µM)
Answers are plain numbers, in µM.

Can you look up the measured IC50 of CCCCC1CCCCCCc2cc1c(/C=C1\N=C(c3ccc[nH]3)C=C1OC)[nH]2 (stereo not shown) for me?
0.05

###

- TARGET OF ASSAY: Bcl-2 (Homo sapiens, UniProt P10415)
- Sequence (P10415 whole entry): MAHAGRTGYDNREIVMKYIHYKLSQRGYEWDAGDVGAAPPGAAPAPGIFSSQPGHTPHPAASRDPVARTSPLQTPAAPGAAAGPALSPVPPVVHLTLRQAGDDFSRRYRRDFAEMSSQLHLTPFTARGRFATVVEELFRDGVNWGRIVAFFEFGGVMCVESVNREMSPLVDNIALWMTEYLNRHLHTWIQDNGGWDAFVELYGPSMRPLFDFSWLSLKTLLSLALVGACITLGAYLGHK
- PROTOCOL NOTES: Anti-apoptotic:Pro-apoptotic binding assay, Bcl-2
EXPERIMENTAL READOUT: IC50 (µM)
Numbers only, in µM.

Query for Bcl-2 (Homo sapiens, UniProt P10415): what IC50 does the record show for CCCCC1CCCCCCc2cc1c(/C=C1\N=C(c3ccc[nH]3)C=C1OC)[nH]2 (stereo not shown) ?
125

###

- PROTOCOL NOTES: Trypan blue cell death assay in normal human breast epithelial cells
- Type: cell-based
- TEST CONTEXT: human
EXPERIMENTAL READOUT: cytotoxicity at 72 h, 0.25 µM (%)
One number for each entry, in %.

Can you look up the measured cytotoxicity at 72 h, 0.25 µM of CCCCC1CCCCCCc2cc1c(/C=C1\N=C(c3ccc[nH]3)C=C1OC)[nH]2 (stereo not shown) for me?
5
